test system: Escherichia coli strain BL21AI; experiment: Minimum inhibitory concentration in TSB in the presence of 25% mouse serum; assay type: cell-based; settings: E. coli BL21AI, TSB with 25% mouse serum, 20 hours at 37° C.
Square brackets hold non-standard residues; d marks the D form. Primed or numbered codes have the meaning given here. * marks the point of attachment. Guan″ = guanidino group at the N-terminus, N=C(N)*; sPEG750 = PEG of 750 linked via acid group; Guan = N-guanidino (N-terminal), N=C(N)*; Hyp = O=C(O)[C@@H]1C[C@@H](O)CN1; Tle = CC(C)(C)[C@H](N)C(=O)O; Orn = NCCC[C@H](N)C(=O)O
Reported MIC in TSB/mouse serum is given for each of the following substances.
measureName: MIC in TSB/mouse serum (µM)

substance	measureName	observed
H-GNNRPVYIPQPRPPHPRL-OH [Apidaecin 1b, reference compound]	MIC in TSB/mouse serum	1.75
Guan-ONO(sPEG^750-GARSG)RPVYIPRPRPPHPRL-OH ({Guan″}-[Orn]N[Orn]RPVYIPRPRPPHPRL-OH; not fully specified (residue 3)) [Api 301 (sPEG^750-GARSG)]	MIC in TSB/mouse serum	0.27
Guan-OO(sPEG^750-GARSG)NRPVYIPRPRPPHPRL-OH (Guan-[Orn][Orn]NRPVYIPRPRPPHPRL-OH; not fully specified (residue 2)) [Api 300 (sPEG^750-GARSG)]	MIC in TSB/mouse serum	0.54
Guan-OO(sPEG^750-GRSG)NRPVYIPRPRPPHPRL-OH (Guan-[Orn][Orn]NRPVYIPRPRPPHPRL-OH; not fully specified (residue 2)) [Api 300 (sPEG^750-GRSG)]	MIC in TSB/mouse serum	0.37
sPEG^750-GAR-VDKPPYLPRPRPHypRHypTleYNO-NH2 (sPEG750-GARVDKPPYLPRPRP[Hyp]R[Hyp][Tle]YN[Orn]-NH2) [sPEG^750-GAR-Onc 110]	MIC in TSB/mouse serum	9.2
sPEG^750-GAR-VDKPPYLPRPRPPROIYNO-NH2 (sPEG750-GARVDKPPYLPRPRPPR[Orn]IYN[Orn]-NH2) [sPEG^750-GAR-Onc 72]	MIC in TSB/mouse serum	6.1
Guan-OO(tPEG^5000-GARSG)NRPVYIPRPRPPHPRL-OH (Guan-[Orn][Orn]NRPVYIPRPRPPHPRL-OH; not fully specified (residue 2)) [Api 300 (tPEG^5000-GARSG)]	MIC in TSB/mouse serum	0.44

---

settings: mouse, serum, 6 h, 15 µg/ml
Square brackets hold non-standard residues; d marks the D form. * marks the point of attachment. sPEG750 = PEG of 750 linked via acid group; Guan = N-guanidino (N-terminal), N=C(N)*; Hyp = O=C(O)[C@@H]1C[C@@H](O)CN1; Tle = CC(C)(C)[C@H](N)C(=O)O; Orn = NCCC[C@H](N)C(=O)O
measureName: uncleaved peptide remaining after the indicated time (instead of half-life) (%)

substance	observed
Guan-OO(tPEG^5000-GAARSG)NRPVYIPRPRPPHPRL-OH (Guan-[Orn][Orn]NRPVYIPRPRPPHPRL-OH; not fully specified (residue 2)) [Api 300 (tPEG^5000-GAARSG)]	76
tPEG^750-GAR-VDKPPYLPRPRPHypRHypTleYNO-NH2 (tPEG750-GARVDKPPYLPRPRP[Hyp]R[Hyp][Tle]YN[Orn]-NH2; not fully specified) [tPEG^750-GAR-Onc 110]	64
sPEG^750-GAR-VDKPPYLPRPRPHypRHypTleYNO-NH2 (sPEG750-GARVDKPPYLPRPRP[Hyp]R[Hyp][Tle]YN[Orn]-NH2) [sPEG^750-GAR-Onc 110]	73

// provenance: patent US9856298B2
